Data origin: PubChem BioAssay (NCI)

System: OVCAR-8 ovarian
Experiment: NCI tumour cell line growth inhibition, 48 h
Please provide measured TGI for the entries that follow.
One number for each entry, in µM.

# Compound Smiles, Subject Of Test, TGI / µM
records = [
    ("CC1=C(C(=O)Nc2ccccc2C)C(c2ccccc2C)C(C(=O)Nc2ccccc2C)=C(C)N1", "OVCAR-8 ovarian", 36.8),
]

### Prompt Which TGI value is on record for `Nc1cc(-c2ccccc2)n(C(=O)Nc2ccc(Oc3ccccc3)cc2)n1` ?
### Response 57.1

----------
System: OVCAR-4 ovarian
Assay: NCI tumour cell line growth inhibition, 48 h
Please provide measured GI50 for the entries that follow.

Below: 3 compounds and their reported GI50.
# Compound, GI50
records = [
    ("O=C1COCCN1c1ccc(NCc2cn(C(=O)c3ccc(Cl)cc3)c3ccccc23)cc1", "0.494 µM"),
    ("CNc1ncc2cc(Oc3ccc(F)cc3F)c(=O)n(C)c2n1", "> 25 µM"),
    ("NCCSC(C[N+](=O)[O-])c1ccccc1Cl (centres undefined)", "12.1 µM"),
]

For every item below, please supply its GI50.
1. O=C(CN1C(=O)S/C(=C\C(Cl)=C\c2ccccc2)C1=O)NCCCn1ccnc1
2. CCCC(CCC)C(=O)OCC1(CO)C/C(=C\c2ccc(C(F)(F)F)cc2)C(=O)O1 (centres undefined)
3. C=C1C(=O)O[C@H]2[C@H]1CC/C(CNC(=O)/C=C/c1ccc(Cl)cc1Cl)=C\CC[C@@]1(C)O[C@@H]21
4. O=C1c2ccn(CCCCN(CCO)CCO)c2C(=O)c2c1c(O)c1ccccc1c2O
5. Cc1ccccc1NC(=O)c1cc2ccccc2cc1O

### Response
1. 1.86 µM
2. 17.9 µM
3. 1.31 µM
4. 31.7 µM
5. 3.44 µM

### Prompt Which GI50 value is on record for `O=c1[nH]nc(-c2ccccc2)c2c(-c3ccccc3)onc12` ?
### Response 2.4 µM
